Target chain: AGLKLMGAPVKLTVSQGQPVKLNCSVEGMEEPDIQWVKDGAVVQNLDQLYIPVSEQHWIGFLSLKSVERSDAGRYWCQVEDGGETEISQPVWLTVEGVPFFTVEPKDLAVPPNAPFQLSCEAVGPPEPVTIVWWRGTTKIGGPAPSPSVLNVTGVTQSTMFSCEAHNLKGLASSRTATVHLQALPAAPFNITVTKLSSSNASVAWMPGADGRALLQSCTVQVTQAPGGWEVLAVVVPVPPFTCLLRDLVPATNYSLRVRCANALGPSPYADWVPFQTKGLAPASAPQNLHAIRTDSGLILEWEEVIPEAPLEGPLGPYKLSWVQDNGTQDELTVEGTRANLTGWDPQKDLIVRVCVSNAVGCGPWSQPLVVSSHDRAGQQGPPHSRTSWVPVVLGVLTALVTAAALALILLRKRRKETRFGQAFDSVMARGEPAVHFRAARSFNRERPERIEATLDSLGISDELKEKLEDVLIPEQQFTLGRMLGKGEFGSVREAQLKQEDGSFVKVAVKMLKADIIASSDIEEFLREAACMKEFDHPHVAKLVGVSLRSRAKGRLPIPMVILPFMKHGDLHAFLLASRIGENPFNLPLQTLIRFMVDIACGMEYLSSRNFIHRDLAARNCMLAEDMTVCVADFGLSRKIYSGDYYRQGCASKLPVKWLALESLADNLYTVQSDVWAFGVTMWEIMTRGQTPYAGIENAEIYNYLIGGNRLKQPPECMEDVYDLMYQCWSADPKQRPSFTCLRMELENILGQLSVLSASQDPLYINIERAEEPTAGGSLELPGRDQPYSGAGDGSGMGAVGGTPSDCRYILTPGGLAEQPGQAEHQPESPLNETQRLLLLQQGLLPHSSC
pKd: −log10 of the molar value.
attribute-measured: pKd

COc1cc2nccc(Oc3ccc(NC(=O)c4nn(-c5cnc(N)cn5)cc4OCC4CC4)nc3)c2cc1OC    > 7.00
CCOc1cn(-c2ccc(F)cc2CC)nc1C(=O)Nc1ccc(Oc2ccnc3cc(OC)c(OC)cc23)cn1    > 7.00
COc1cc2nccc(Oc3ccc(NC(=O)c4nn(-c5cnc(N)nc5)cc4OC(F)F)nc3)c2cc1OC    ≤ 6.00
CCOc1cn(-c2cnccc2C(C)(C)O)nc1C(=O)Nc1ccc(Oc2ccnc3cc(OC)c(OC)cc23)cn1    > 7.00
CCOc1cn(-c2cnccc2CCCN(C)C)nc1C(=O)Nc1ccc(Oc2ccnc3cc(OC)c(OC)cc23)cn1    > 7.00

Query :: Which pKd is reported for this molecule? `CCOc1cn(-c2ccc(F)cc2C)nc1C(=O)Nc1ccc(Oc2ccnc3cc(OC)c(OC)cc23)c(Cl)c1`
Result :: > 7.00

Query :: I have this molecule here, `CCOc1cn(-c2noc(C)n2)nc1C(=O)Nc1ccc(Oc2ccnc3cc(OC)c(OC)cc23)cn1` , and I need its recorded pKd.
Result :: > 7.00
